Target of assay: Human ATX protein (Homo sapiens)
Construct: made in house
Test summary: Autotaxin (ATX) assay, FRET with FS-3 substrate
Type: biochemical
Experimental context: upper bound bins (no greater than 100, 250 or 500 nM); FS-3 2 μM, ATX 1.0 μg/mL
pIC50: −log10 of the molar value.
For each of the compounds below, state its pIC50.

Example entries and their recorded answers appear below.
O=C(O)c1cc2n(c1)CCCN(C(=O)OCc1cc(Cl)cc(Cl)c1)C2    ≥ 7.00
Cc1cc(COC(=O)N2CCCn3nc(C(=O)O)cc3C2)cc(C(F)(F)F)c1    ≥ 7.00
O=C(OCc1cc(C(F)(F)F)cc(C(F)(F)F)c1)N1CCCn2nc(CN3CCC(F)CC3)cc2C1    ≥ 7.00

Now for another entry.
Which pIC50 reading was recorded for the compound "O=C(OCc1cc(C(F)(F)F)cc(C(F)(F)F)c1)N1CCCn2nc(CN[C@H]3CC[C@H](C(=O)O)CC3)cc2C1" ?
≥ 6.60
